- method.notes: Cell viability of HMCLs by trypan blue exclusion
- Format: cell-based, human
- details: human, LP1 multiple myeloma cells; LP1, 0.5 μM decitabine, Day 7, mean ± SD
reported.endpoint: viability at 7 days, 0.5 μM

[Q] Given the molecule Nc1ncn([C@H]2C[C@H](O)[C@@H](CO)O2)c(=O)n1 , what is its reported viability at 7 days, 0.5 μM?
[A] 86%

====

- Test system: human myeloma cell lines (HMCLs)
- method.notes: Growth assay for myeloma cells (Cell Titer Glo, 4 days, graded DNMTi concentrations)
- Type: cell-based
- details: Homo sapiens, 96 h, read-out: median IC50, decitabine; 5 HMCLs with low DM Score; 4 days
reported.endpoint: IC50 (µM)
Field: numeric (µM). Do not append units.

[Q] Requested read-out IC50, target or system human myeloma cell lines (HMCLs), entry Nc1ncn([C@H]2C[C@H](O)[C@@H](CO)O2)c(=O)n1
[A] 7.94

====

- method.notes: Cell viability of HMCLs by trypan blue exclusion
- Type: cell-based, human
- details: human, XG-6 multiple myeloma cells; XG-6, 0.5 μM decitabine, Day 3, mean ± SD
reported.endpoint: viability at 3 days, 0.5 μM (%)
Hi! Could you send only the number? It should be in %, unit omitted.

[Q] viability at 3 days, 0.5 μM lookup needed for Nc1ncn([C@H]2C[C@H](O)[C@@H](CO)O2)c(=O)n1 , thanks.
[A] 90

====

- System: human myeloma cell lines (HMCLs)
- method.notes: Growth assay for myeloma cells (Cell Titer Glo, 4 days, graded DNMTi concentrations)
- Assay type: cell-based
- details: Homo sapiens, 96 h, decitabine; 5 HMCLs with low DM Score; 4 days; read-out: IC50 range
- Method: HMCLs were cultured for 4 days in 96-well flat-bottom microtiter plates in RPMI 1640 medium, 10% FCS, 2 ng/ml IL-6 culture medium (control), with graded decitabine concentrations. Data are mean values plus or minus standard deviation (SD) of 5 experiments determined on sextuplet culture wells. HMCLs were cultured for 4 days in 96-well flat-bottom microtiter plates in RPMI 1640 medium, 10% FCS, 2 ng/ml IL-6 culture medium (control), and graded 5-azacitidine concentrations. […]
reported.endpoint: IC50

[Q] Name the reported IC50 value associated with the compound Nc1ncn([C@H]2C[C@H](O)[C@@H](CO)O2)c(=O)n1
[A] 2.92 to 60.8 µM

====

- method.notes: Cell viability of HMCLs by trypan blue exclusion
- Assay type: cell-based, human
- details: human, XG-7 multiple myeloma cells; XG-7, 0.5 μM decitabine, Day 3, mean ± SD
reported.endpoint: viability at 3 days, 0.5 μM

[Q] Reported viability at 3 days, 0.5 μM, compound Nc1ncn([C@H]2C[C@H](O)[C@@H](CO)O2)c(=O)n1 : ____
[A] 90%

====

- method.notes: Cell viability of HMCLs by trypan blue exclusion
- Format: cell-based, human
- details: human, XG-20 multiple myeloma cells; XG-20, 0.5 μM decitabine, Day 3, mean ± SD
reported.endpoint: viability at 3 days, 0.5 μM (%)
Please respond with the number in % and leave the unit unwritten.

[Q] Can you look up the measured viability at 3 days, 0.5 μM of Nc1ncn([C@H]2C[C@H](O)[C@@H](CO)O2)c(=O)n1 [decitabine, 5-Aza-2′-deoxycytidine] for me?
[A] 91

====

- method.notes: Cell viability of HMCLs by trypan blue exclusion
- Type: cell-based, human
- details: human, XG-20 multiple myeloma cells; XG-20, 0.5 μM decitabine, Day 7, mean ± SD
reported.endpoint: viability at 7 days, 0.5 μM (%)
Respond with the bare value in %.

[Q] Entry Nc1ncn([C@H]2C[C@H](O)[C@@H](CO)O2)c(=O)n1 : reported viability at 7 days, 0.5 μM = ?
[A] 83

====

- method.notes: Cell viability of HMCLs by trypan blue exclusion
- Assay type: cell-based, human
- details: human, XG-5 multiple myeloma cells; XG-5, 0.5 μM decitabine, Day 7, mean ± SD
reported.endpoint: viability at 7 days, 0.5 μM (%)
The reply should be a number in %, with the unit left off.

[Q] Fill in the blank: the reported viability at 7 days, 0.5 μM of Nc1ncn([C@H]2C[C@H](O)[C@@H](CO)O2)c(=O)n1 is ____.
[A] 69

====

- method.notes: Cell viability of HMCLs by trypan blue exclusion
- Assay type: cell-based, human
- details: human, XG-5 multiple myeloma cells; XG-5, 0.5 μM decitabine, Day 3, mean ± SD
reported.endpoint: viability at 3 days, 0.5 μM (%)
Give a bare numeral; the unit % is implied.

[Q] Entry under review: Nc1ncn([C@H]2C[C@H](O)[C@@H](CO)O2)c(=O)n1 [decitabine, 5-Aza-2′-deoxycytidine] . Reported viability at 3 days, 0.5 μM?
[A] 65

====

- Test system: human myeloma cell lines (HMCLs)
- method.notes: Growth assay for myeloma cells (Cell Titer Glo, 4 days, graded DNMTi concentrations)
- Assay type: cell-based
- details: Homo sapiens, 96 h, read-out: IC50 range, decitabine; 5 HMCLs with the highest DM Score; 4 days
pIC50: −log10 of the molar value.
reported.endpoint: pIC50

[Q] Report pIC50 for Nc1ncn([C@H]2C[C@H](O)[C@@H](CO)O2)c(=O)n1 please.
[A] 5.65 to 6.82
